test system: Plasmodium berghei; test: Screen against P. berghei liver stage (PbLuc), transformed with Luciferase, at 2uM; assay type: functional, HepG2; conditions: tested at 2 uM
Out of some 68,000 compounds screened, about 2,700 (4%) showed an effect of 50% or more. Only a selection was taken, and strong results are over-represented in it overall.
parameter.measured: INHIBITION (%)
One number for each entry, in %.

>  <molecule>
CCn1cc(CNCCNc2ncc(Cl)cc2Cl)cn1

>  <target.or.test.system>
Plasmodium berghei

>  <unit.string>
%

>  <numeric.readout>
-30.98

$$$$

# batch size: 6; output INHIBITION per entry
1. NC(=O)CC1CCN(CC(O)c2ccc(Br)cc2)CC1 (stereo unspecified)
2. Cc1ccc(C2COCCN2C(=O)c2ccc(N(C)C)cc2)o1 (stereo unspecified)
3. Cc1ccccc1CCC1CCCN(Cc2nnc(-c3ccco3)o2)C1 (stereo unspecified)
4. CC(C)c1cc(=O)[nH]c(-n2nc(C3CC3)cc2N)n1
5. COc1cccc2ccc(CN3CCN(c4ncccn4)CC3)nc12
6. CN1CCC(c2cccc(-c3cccc(C(=O)O)c3)n2)CC1

Reply text:
[-58.06, 30.73, 55.7, 16.98, 38.8, -14.73]

# batch size: 6; output INHIBITION per entry
1. CN(Cc1nnc(-c2ccco2)o1)C1CCCN(c2cccnn2)C1 (stereo unspecified)
2. COc1ccccc1C(=O)Nc1cc(CC(C)C)nn1C
3. COCCn1cncc1-c1nc2c([nH]1)CC(C)(C)CNC2=O
4. COc1ccc(C(=O)N2CCOCC2c2ccc(C)o2)cc1 (stereo unspecified)
5. CN(Cc1ncc(-c2ccccc2)o1)C1CCCN(c2cccnn2)C1 (stereo unspecified)
6. O=C(O)c1c(-c2cncnc2)ncc2c1CCN(Cc1cccnc1)C2

Reply text:
53.03
56.02
8.54
39.93
-4.81
11.98

# batch size: 3; output INHIBITION per entry
1. CCOC(=O)c1ccccc1NC(=O)CN(C)Cc1ccccc1Cl
2. Cc1nc(C)n(CC2CCCN(Cc3nnc(-c4ccco4)o3)C2)n1 (stereo unspecified)
3. OC(CN1CCN(CC2CC2)CC1)c1ccc(Br)cc1 (stereo unspecified)

Reply text:
[16.25, 22.51, 50.32]

Just for reference, ChEMBL document CHEMBL4513216 is where these values come from.
